target: recombinant full-length Pfs48/45 (Plasmodium falciparum 3D7, UniProt Q8I6T1); test: ELISA; settings: both partners purified
Sequence (Q8I6T1 28-428): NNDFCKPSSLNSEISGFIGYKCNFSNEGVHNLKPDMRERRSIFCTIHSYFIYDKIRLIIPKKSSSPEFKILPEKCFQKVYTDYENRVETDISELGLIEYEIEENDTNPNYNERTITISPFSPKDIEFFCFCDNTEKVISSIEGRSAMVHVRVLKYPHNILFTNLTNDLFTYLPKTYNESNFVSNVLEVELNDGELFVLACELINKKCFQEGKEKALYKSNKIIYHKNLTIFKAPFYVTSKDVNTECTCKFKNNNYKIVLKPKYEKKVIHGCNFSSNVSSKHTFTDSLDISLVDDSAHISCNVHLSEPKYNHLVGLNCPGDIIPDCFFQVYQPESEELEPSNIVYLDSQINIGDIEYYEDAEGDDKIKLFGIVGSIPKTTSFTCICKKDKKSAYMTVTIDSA
READOUT_TYPE: binding result

- RUPA-143 (antibody, V domains shown, human IgG1; source: recombinant human IgG1, 293T (Protein A purified) or GenScript) VH: QVQLVQSGAEVKKPGASVKVSCKASASTIANFAVSWVRQAPGQGLEWMGWISVYNVKTGDVKYAPKFQGRVTLTIDTATSTASMELRSLRFDDTAVYYCARANWYDNVWQEYFYGMDVWGQGTTVTVSS VL: DIQMTQSPLTLSASVGDRVTITCRASQSVSRFLAWYQQKPGKAPKLLMYKVSNLESGVPSRFSGSGFGTQFTLTISSLQPDDFATYYCQHYDAYPWTFGQGTKVEIK: binds
- RUPA-154 (antibody, V domains shown, human IgG1; source: recombinant human IgG1, 293T (Protein A purified) or GenScript) VH: QVQLVQSGAEVRKPGASVKVSCRTSGYTFTDYYMHWVRQAPGEGLEWMGSINPKSGGTSYAERFQGRVTMTMETSVSTAYLDLSSLRSDDTAVYYCARLLYSRAVYYYGMDVWGQGTTVTVSS VL: SYELTQPPSVSVAPGKTARITCGGKDLGSKSVHWYQQKPGQAPVLVIYYDNIRPSGIPERFSGSNSGNTATLTISRVEAGDEADYYCQVWDSSSDHYVFGRGAKVTVL: binds
- RUPA-160 (antibody, V domains shown, human IgG1; source: recombinant human IgG1, 293T (Protein A purified) or GenScript) VH: QVQLVQSGAEVKKPGASVKASCKASGYTFDNFDIIWARQATGQGLEWMGWMNPNTGKKGYAQNLKDRVTMTRDSSISTAYLELSSLRSEDTAVYYCVRAVGSYYGSGGWFDPWGQGTLVTVSS VL: QSVLTQPPSASGTPGQRVTIACSGSSSNIGGNNVKWYQQLPGTAPKLVIYNNDERPPGVPDRVSGSKSGTSASLAISGVQSEDEADYYCATWDDSMKREVFGGGTKLTVL: binds
